Target: T1, human nectin-4 protein expressed on the surface of cells (human, UniProt Q96NY8 32-510)
T1 construct: also called HEK 293 cells overexpressing human nectin-4; HekNectin4
T1 sequence: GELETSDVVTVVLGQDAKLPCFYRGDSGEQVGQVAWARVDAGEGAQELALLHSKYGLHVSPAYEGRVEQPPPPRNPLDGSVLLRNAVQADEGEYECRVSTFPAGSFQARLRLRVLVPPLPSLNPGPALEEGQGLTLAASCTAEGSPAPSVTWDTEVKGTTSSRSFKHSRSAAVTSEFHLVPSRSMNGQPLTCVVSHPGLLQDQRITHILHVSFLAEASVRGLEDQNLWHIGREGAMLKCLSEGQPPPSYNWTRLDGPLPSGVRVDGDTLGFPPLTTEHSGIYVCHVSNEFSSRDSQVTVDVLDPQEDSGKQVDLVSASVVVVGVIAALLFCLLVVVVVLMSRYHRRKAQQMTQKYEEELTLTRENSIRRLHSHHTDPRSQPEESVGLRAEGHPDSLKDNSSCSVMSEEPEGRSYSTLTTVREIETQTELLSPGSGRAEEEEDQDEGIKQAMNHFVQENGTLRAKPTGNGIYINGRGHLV
Test: flow cytometry, HEK 293 cells overexpressing the target
List of Flow data values.

- BINDER: "Nectin-4 5D9H/5D9L (recombinant chimeric antibody) (antibody, V domains shown, also called Nectin-4 5D9 chimeric mAb) VH: QVQLKQSGPGLVQPSQSLSITCTVSGFSLTNYGVHWVRQSPGKGLEWLGVIWSGGSTDYNAAFVSRLSISRDNSKSQVFFKMNSLQADDTAIYYCARSGKWYYFDYWGQGTTLTVSS VL: DIQMTQSPASLSVSVGETVTITCRASENIYSNLAWYQQKQGKSPQLLVYAATNLADGVPSRFSGSGSGTQYSLKINSLQSEDFGSYYCQHFWGTPTFGGGTKLEIK"
  Flow data: 11200
- BINDER: "Nectin-4 Hybridoma 6C8H/6C8L (recombinant chimeric antibody) (antibody, V domains shown) VH: QVQLKQSGPGLVQPSQSLSITCTVSGFSLSTYGVHWVRQSPGKGLEWLGVIWSGGSTDYNAAFISRLTISKDNSKSQIFFKMNSLQADDTAIYYCARMMSWYFDVWGTGTTVTVSS VL: DIVMTQSQKFMSTSVGDRVSVTCKASQNVVTNVAWYQQKPGQSPKALIYSASYRYSGVPDRFTGSGSGTDFTLTISNVQSEDLAEYFCQQYNSYPLTFGAGTKLELK"
  Flow data: 10200
- BINDER: "Nectin-4 3C12H/3C12L (recombinant chimeric antibody) (antibody, V domains shown) VH: QVQLKQSGPGLVQPSQSLSITCTVSGFSLTTYGVHWVRQSPGKGLEWLGVIWSGGNTDYNAAFISRLSISKDNSKSQVFFKMNSLQADDTAIYYCARMTHWYFDVWGTGTTVTVSS VL: DIVMTQSQKFMSTTVGDRVSITCKASQNVVTAVAWYQQKPGQSPKLLIYSASNRYTGVPDRFTGSGSGTDFTLTISYMQSEDLADYFCQQYSSYPLTFGAGTKLELK"
  Flow data: 8370

# credit: patent US20250101098A1
